test: caspase-8 TRAIL sensitization, hit retest, confirmation, cell-based, NB7+caspase-8, with/without TRAIL, luminescence panel (AID 651596); details: NB7 neuroblastoma + caspase-8, without TRAIL, luminescence viability, without TRAIL, mean of runs, at 10 µM
recorded-metric: activity (%)

molecule_smiles=CCCCCC(=O)N1C[C@H](n2cc(COC(=O)c3ccccc3)nn2)[C@@H](O)C[C@@H]1c1ccc(Cl)cc1 experimental_result=61
molecule_smiles=CC[C@]12c3[nH]c4ccc(Cl)cc4c3CCN1C(=O)[C@@H](CC(=O)NCc1cccc(C(F)(F)F)c1)C[C@@H]2C(=O)N1CCN(C(=O)c2ccco2)CC1 experimental_result=68.7
molecule_smiles=CCOC(=O)C1=C(C)OC(=Cc2ccc(OC)cc2)C1=O experimental_result=70

###

assay: caspase-8 TRAIL sensitization, hit retest, confirmation, cell-based, NB7+caspase-8, with/without TRAIL, luminescence panel (AID 651596); settings: NB7 neuroblastoma + caspase-8, without TRAIL, luminescence viability, without TRAIL, mean of runs, at 10 µM
recorded-metric: activity (%)

molecule_smiles=Oc1ccccc1C=Nc1ccccc1-c1nc2ccccc2[nH]1 recorded_metric=activity experimental_result=1.85
molecule_smiles=CN(C)c1ccc(/C=N/NC(=O)c2ccco2)cc1 recorded_metric=activity experimental_result=31.4
molecule_smiles=Nc1c(C(=O)N2CCOCC2)sc2nc3c(cc12)CCCC3 recorded_metric=activity experimental_result=63.5
